molecular target: UniProt Q07820; experiment: Protein-protein interaction assay MCL-1/Noxa BH3 peptide (MCL-1 assay), TR-FRET; assay type: binding; conditions: MBP-MCL-1 / Noxa BH3-derived peptide, median
Reported Metric: IC50 (µM)

INSERT INTO results (compound, result_value) VALUES
  ('CN1CCCn2c(C(=O)O)c(CCCOc3cccc4ccccc34)c3cccc(c32)-c2c(COc3ccccc3)nn(C)c2C1 (racemic) [Example 1-81]', 0.0994);

P. Cn1nc2c(c1CN1CCOCC1)-c1cccc3c(CCCOc4cccc5ccccc45)c(C(=O)O)n(c13)CCCCOC2 (racemic) [Example 078]
Q. CCNCc1nn(C)c2c1-c1cccc3c(CCCOc4cccc5ccccc45)c(C(=O)O)n(c13)CCCCOC2 (racemic)
R. COc1ccc2c(CCCOc3cccc4ccccc34)c(C(=O)O)n3c2c1-c1c(nn(C)c1C)COCCCC3 (single isomer, unassigned; enantiomer 1) [Example 350]
S. Cc1ccc2c(C(C)CCOc3cccc4ccccc34)c(C(=O)O)n3c2c1-c1c(C)nn(C)c1COCCCC3 (single isomer, unassigned) [Example 259]
T. Cn1nc(COc2ccc(N3CCN(S(=O)(=O)C4CC4)CC3)cc2)c2c1COCCCCn1c(C(=O)O)c(CCCOc3cccc4ccccc34)c3cccc-2c31 (single isomer, unassigned; enantiomer 2) [Example 1-13]
Query block: # ascending order, key=IC50 Please list each label once, in the requested order.
Result block: T, P, R, Q, S
(T: 0.000796 µM, P: 0.0131 µM, R: 0.0563 µM, Q: 0.152 µM, S: 0.577 µM)

a. CCOCc1nn(C)c2c1-c1cccc3c(CCCOc4cccc5ccccc45)c(C(=O)O)n(c13)CCCCOC2 (single isomer, unassigned; enantiomer 1) [Example 169]
b. CCc1nn(C)c2c1-c1c(C)ccc3c(CCCOc4cccc5c4CCCC5)c(C(=O)O)n(c13)CCCCOC2 (racemic)
c. CCc1nn(C)c2c1-c1c(C)ccc3c(C(C)CCOc4cccc5cc(F)ccc45)c(C(=O)O)n(c13)CCCCOC2 (single isomer, unassigned) [Example 263]
Query block: Put the entries in order of IC50, starting with the largest number. Reply: labels, ordered per the request.
Result block: c, a, b
(c: 0.926 µM, a: 0.0184 µM, b: 0.00578 µM)

I. Cc1nn(C)c2c1-c1cccc3c(CCCOc4cccc5ccccc45)c(C(=O)O)n(c13)CCCCOC2 (single isomer, unassigned; enantiomer 2) [Example 318]
II. Cc1c2c(nn1C)COCCCCn1c(C(=O)O)c(CCCOc3cccc4ccccc34)c3cccc-2c31 (single isomer, unassigned; enantiomer 1) [Example 1-37]
Query block: Of I and II , which one carries the higher reported IC50? # respond with the chosen item's label
Result block: I

----------
target: MCL-1 (Homo sapiens, UniProt Q07820); assay: Protein-protein interaction assay MCL-1/Noxa BH3 peptide (MCL-1 assay), TR-FRET; type: binding; conditions: MBP-MCL-1 / Noxa BH3-derived peptide, median
Sequence (Q07820 whole entry): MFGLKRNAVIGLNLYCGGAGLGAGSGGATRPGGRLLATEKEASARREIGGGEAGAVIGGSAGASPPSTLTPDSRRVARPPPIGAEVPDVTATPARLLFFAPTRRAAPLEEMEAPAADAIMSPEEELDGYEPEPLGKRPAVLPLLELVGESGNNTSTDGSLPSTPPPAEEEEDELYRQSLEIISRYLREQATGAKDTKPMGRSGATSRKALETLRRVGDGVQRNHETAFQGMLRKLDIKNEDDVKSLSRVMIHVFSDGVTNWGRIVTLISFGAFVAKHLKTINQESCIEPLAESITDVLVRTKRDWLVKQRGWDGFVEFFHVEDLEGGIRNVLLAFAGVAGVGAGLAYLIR
Reported Metric: IC50 (µM)

INSERT INTO assay_data (compound, result_value) VALUES
  ('Cn1nc(COc2cncnc2)c2c1COCCCCn1c(C(=O)O)c(CCCOc3cccc4ccccc34)c3cccc-2c31 (single isomer, unassigned) [Example 211]', 0.174),
  ('Cc1nn(C)c2c1-c1cccc3c(CCCOc4cccc5c4CCCC5)c(C(=O)O)n(c13)CCCCCN(C)C2', 0.00885),
  ('Cc1c2c(nn1CCN1CCOCC1)COCCCCn1c(C(=O)O)c(CCCOc3cccc4ccccc34)c3cccc-2c31 (single isomer, unassigned; enantiomer 2) [Example 055]', 0.041),
  ('CN1CCCCn2c(C(=O)O)c(CCCOc3cccc4ccccc34)c3cccc(c32)-c2c(CC(F)(F)F)nn(C)c2C1 (single isomer, unassigned) [Example 224]', 0.395);

a. Cn1nc2c(c1C(F)(F)F)-c1cccc3c(CCCOc4cccc5ccccc45)c(C(=O)O)n(c13)CCCCOC2 (single isomer, unassigned; enantiomer 2) [Example 195]
b. Cc1cc(OCCCc2c(C(=O)O)n3c4c(cccc24)-c2c(C)nn(C)c2COCCCC3)cc(C)c1Cl (racemic) [Example 009]
Query block: Identify the entry with the smaller IC50: a or b . Let me know the label of the one you choose.
Result block: b
(b: 0.00632 µM, a: 0.0532 µM)

I. Cc1ccc2c(CCCOc3cccc4ccccc34)c(C(=O)O)n3c2c1-c1c(C)nn(C)c1COCC=CC3 (racemic)
II. CN1CCCn2c(C(=O)O)c(CCCOc3cccc4ccccc34)c3cccc(c32)-c2c(COc3ccc(C4CCOCC4)cc3)nn(C)c2C1 (single isomer, unassigned) [Example 1-59]
Query block: Please indicate which item has the smaller measured IC50: I versus II Pick one; state its label.
Result block: I
(I: 0.00965 µM, II: 0.0938 µM)

A. Cc1c2c(nn1C1CC1)COCCCCn1c(C(=O)O)c(CCCOc3cccc4ccccc34)c3cccc-2c31 (racemic) [Example 092]
B. CCc1c2c(nn1C)COCCCCn1c(C(=O)O)c(CCCOc3cccc4cc(F)ccc34)c3cccc-2c31 (single isomer, unassigned) [Example 282]
C. Cc1ccc2c(CCCOc3cccc4ccccc34)c(C(=O)O)n3c2c1-c1c(nn(C)c1C)CN(C)CCC3 (single isomer, unassigned; enantiomer 2) [Example 074]
D. Cn1nc(COc2ccc(S(C)(=O)=O)cc2)c2c1COCC=CCn1c(C(=O)O)c(CCCOc3cccc4ccccc34)c3cccc-2c31 (single isomer, unassigned) [Example 1-52]
E. Cc1nn(C)c2c1-c1cccc3c(CCCOc4cccc5ccccc45)c(C(=O)O)n(c13)CCCN(C)C2 (single isomer, unassigned; enantiomer 2) [Example 1-32]
Query block: Hey, can you sort those compounds up there by IC50, smallest first? Returns: the labels arranged in the requested order.
Result block: B, A, C, E, D

a. COCc1nn(C)c2c1-c1cccc3c(CCCOc4cccc5ccccc45)c(C(=O)O)n(c13)CCCN(C)C2 (single isomer, unassigned; enantiomer 1) [Example 1-103]
b. Cn1nc(CC(F)(F)F)c2c1COCCCCn1c(C(=O)O)c(CCCOc3cccc4ccccc34)c3cccc-2c31 (single isomer, unassigned) [Example 220]
Query block: Field: lower IC50 | Options: a / b API: response body contains the label of the selected item.
Result block: b
(b: 0.00323 µM, a: 0.00735 µM)

A. Cc1c2c(nn1C)CCCCCCn1c(C(=O)O)c(CCCOc3cccc4ccccc34)c3cccc-2c31 (racemic) [Example 190]
B. Cc1nn(CC(F)(F)F)c2c1-c1cccc3c(CCCOc4cccc5c4CCCC5)c(C(=O)O)n(c13)CCCCOC2 (single isomer, unassigned; enantiomer 2) [Example 163]
Query block: IC50 comparison. Which is larger, A or B ? // respond with label for picked entry
Result block: B
(B: 0.637 µM, A: 0.00546 µM)

----------
test system: SUDHL5; assay: Induction of cytotoxicity (CellTiter-Glo, 5 h), SUDHL5; details: read-out: Cytotox SUDHL5 [M] (median); SUDHL5 cells, cytotoxicity induction, CellTiter-Glo, 5 h incubation, median
Items are presented alongside their recorded IC50.
Please state the figure in M; there is no need to write the unit.

INSERT INTO measurements (compound, result_value) VALUES
  ('Cc1c2c(nn1CCN1CCOCC1)COCCCCn1c(C(=O)O)c(CCCOc3cccc4cc(F)ccc34)c3cccc-2c31 (single isomer, unassigned) [Example 285]', '7.5e-07'),
  ('Cc1c2c(nn1CCN1CCOCC1)COCCCCn1c(C(=O)O)c(CCCOc3cccc4cc(F)ccc34)c3cccc-2c31 (single isomer, unassigned) [Example 286]', '1.2e-05'),
  ('Cc1nn(C)c2c1-c1cccc3c(CCCOc4cccc5cc(F)ccc45)c(C(=O)O)n(c13)CCCCOC2 (single isomer, unassigned; enantiomer 1) [Example 019]', '1.68e-06'),
  ('CCCc1nn(C)c2c1-c1c(C)ccc3c(CCCOc4cccc5ccccc45)c(C(=O)O)n(c13)CCCN(C)C2 (single isomer, unassigned; enantiomer 1) [Example 196]', '1.36e-06'),
  ('Cn1nc(COc2ccc(S(C)(=O)=O)cc2)c2c1COCC=CCn1c(C(=O)O)c(CCCOc3cccc4ccccc34)c3cccc-2c31 (single isomer, unassigned) [Example 1-53]', '6.49e-06');

Query block: Find the measured IC50: item Cc1nn(C)c2c1-c1cccc3c(CCCOc4cccc5ccccc45)c(C(=O)O)n(c13)CCCOC2 (single isomer, unassigned; enantiomer 2) [Example 045] , target or system SUDHL5.
Result block: 2.59e-05

----------
Recorded IC50 by entry
tested on: OPM2; experiment: Anti-proliferative effect (CellTiter-Glo, 72 h), OPM2; assay type: cell-based; conditions: Homo sapiens, OPM-2, 72 h, OPM2 cells, median, read-out: IC50 antiproliferation assay OPM2 [M] (median)
Give just the numeric value; M need not be written.

INSERT INTO measurements (compound, assayed_system, result_value) VALUES
  ('Cc1c2c(nn1C)CN(C)CCCCn1c(C(=O)O)c(CCCOc3cccc4ccccc34)c3cccc-2c31 (single isomer, unassigned; enantiomer 1) [Example 068]', 'OPM2', '9.82e-06');

From here, focus on the item given below.
Query block: Can you look up the measured IC50 of Cn1nc(COc2ccc(N3CCN(S(C)(=O)=O)CC3)cc2)c2c1COCCCCn1c(C(=O)O)c(CCCOc3cccc4ccccc34)c3cccc-2c31 (racemic) [Example 1-8] for me?
Result block: 1.24e-06
